- Tested on: HeLa cells
- Protocol Notes: Time-course dual luciferase assay of modified Firefly luciferase mRNA (Renilla control)
- Format: cell-based
- Settings: HeLa cells; Fluc reporter; result in words
Strand notation (5' to 3'): a small letter for the sugar, then the base; units joined by * are phosphorothioate-linked, units joined directly phosphodiester-linked; [ ] holds rarer units or linkages, { } end groups; capitals alone tell only the bases. {m7G-cap} = 7-methylguanosine cap added chemically (m7GDP-imidazolide) to the 5'-phosphate; d = 2'-deoxy (DNA); r = 2'-OH (RNA)
Measurement Kind: Effect of cap/5′ UTR modification on protein production / translation

>>> reported_result("construct 10: m7G cap; /5Phos/ArGrArGrArArUrArArArArA (SEQ ID NO: 11) ({m7G-cap}-dArGrArGrArArUrArArArArA)")
"negligible changes"
>>> reported_result("construct 9: m7G cap; /5Phos//ibetaL-rA/rGrArGrArArUrArArArArA (SEQ ID NO: 10) (AGAGAAUAAAAA; m7G cap; 5' phosphate; beta-L-A; modified_base 1 OTHER; 5'-phosphate modified L-adenosine)")
"negligible changes"

Source of measurements: patent US20260263638A1
